- Target Entity: cAMP and cAMP-inhibited cGMP 3',5'-cyclic phosphodiesterase 10A (Homo sapiens, UniProt Q9Y233)
- Sequence (Q9Y233 whole entry): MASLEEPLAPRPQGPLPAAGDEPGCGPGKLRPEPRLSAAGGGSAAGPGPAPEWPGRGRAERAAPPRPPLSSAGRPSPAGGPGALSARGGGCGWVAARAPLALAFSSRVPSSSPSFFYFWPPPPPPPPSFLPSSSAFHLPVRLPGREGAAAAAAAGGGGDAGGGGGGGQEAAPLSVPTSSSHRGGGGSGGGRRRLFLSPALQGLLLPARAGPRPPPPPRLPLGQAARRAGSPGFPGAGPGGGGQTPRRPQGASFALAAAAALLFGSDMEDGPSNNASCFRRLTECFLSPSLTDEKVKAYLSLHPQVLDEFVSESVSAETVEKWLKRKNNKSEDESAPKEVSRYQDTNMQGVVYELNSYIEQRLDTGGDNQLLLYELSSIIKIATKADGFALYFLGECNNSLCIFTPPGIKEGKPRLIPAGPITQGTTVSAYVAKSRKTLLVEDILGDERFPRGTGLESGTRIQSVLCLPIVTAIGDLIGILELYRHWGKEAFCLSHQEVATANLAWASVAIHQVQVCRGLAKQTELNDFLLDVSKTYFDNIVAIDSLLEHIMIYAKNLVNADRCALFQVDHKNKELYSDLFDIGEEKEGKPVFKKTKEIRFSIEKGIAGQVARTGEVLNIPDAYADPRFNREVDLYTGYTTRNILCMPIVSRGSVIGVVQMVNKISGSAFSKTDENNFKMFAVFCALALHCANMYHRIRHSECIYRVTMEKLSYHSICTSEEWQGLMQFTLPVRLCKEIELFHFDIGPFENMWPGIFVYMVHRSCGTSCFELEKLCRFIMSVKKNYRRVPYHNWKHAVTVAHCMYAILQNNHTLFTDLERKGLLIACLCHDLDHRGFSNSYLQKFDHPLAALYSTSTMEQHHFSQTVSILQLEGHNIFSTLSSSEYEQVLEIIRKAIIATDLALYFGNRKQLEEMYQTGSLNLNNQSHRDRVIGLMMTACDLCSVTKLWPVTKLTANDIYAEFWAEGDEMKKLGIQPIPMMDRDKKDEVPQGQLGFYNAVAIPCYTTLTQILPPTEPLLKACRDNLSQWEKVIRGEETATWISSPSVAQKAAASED
- Assay Comment: Inhibition of human recombinant PDE10A assessed as inhibition of [3H]cAMP hydrolysis by scintillation proximity assay
pKi: −log10 of the molar value.
Measured Endpoint: pKi

Some solved entries appear below for comparison.
INSERT INTO results (molecule, measured_endpoint, result) VALUES
  ('COc1cc2c(cc1OC)-c1c(-c3cnc(C(=O)N(C)C(C)(C)C)s3)ncn1CC2', 'pKi', 8.06),
  ('COc1cc2c(cc1OC)-c1c(-c3cnc(C)s3)ncn1CC2', 'pKi', 6.73),
  ('COc1cc2c(cc1OC)-c1c(-c3ccccc3)ncn1CC2', 'pKi', 6.92),
  ('COc1cc2c(cc1OC)-c1c(-c3ccncc3)ncn1CC2', 'pKi', 7.00),
  ('COc1cc2c(cc1OC)-c1c(-c3ccc(Cl)cc3)ncn1CC2', 'pKi', 6.74);

(P) COc1cc2c(cc1OC)-c1c(-c3cncn3C)ncn1CC2
(Q) COc1ccc(-c2ncn3c2-c2cc(OC)c(OC)cc2CC3)cc1
Request: Please indicate which item has the smaller measured pKi: P versus Q The response must carry the label of the picked entry.
Response: P

(I) COc1cc2c(cc1OC)-c1c(-c3cccc(Cl)c3)ncn1CC2
(II) COc1cc2c(cc1OC)-c1c(-c3cnc(C(=O)NC4CCOCC4)s3)ncn1CC2
Request: Which of the two items, I and II , has the greater recorded pKi? The response must carry the label of the picked entry.
Response: II
(II: 8.37, I: 7.48)

(1) COc1cc2c(cc1OC)-c1c(-c3cnco3)ncn1CC2
(2) CCOc1cccc(-c2ncn3c2-c2cc(OC)c(OC)cc2CC3)c1
(3) COc1cc2c(cc1OC)-c1c(C3CCCCC3)ncn1CC2
(4) COc1cc2c(cc1OC)-c1c(-c3ccccc3Cl)ncn1CC2
(5) COc1cc2c(cc1OC)-c1c(-c3cnc(C(=O)N4CCCOCC4)s3)ncn1CC2
Request: Order the records so the highest pKi appears first and the lowest last. // format: requested-order list of labels
Response: 5, 2, 1, 3, 4
(5: 8.82, 2: 8.10, 1: 7.51, 3: 6.70, 4: 6.20)

---

- Target Entity: cGMP-dependent 3',5'-cyclic phosphodiesterase (Homo sapiens)
- Sequence (O00408 whole entry): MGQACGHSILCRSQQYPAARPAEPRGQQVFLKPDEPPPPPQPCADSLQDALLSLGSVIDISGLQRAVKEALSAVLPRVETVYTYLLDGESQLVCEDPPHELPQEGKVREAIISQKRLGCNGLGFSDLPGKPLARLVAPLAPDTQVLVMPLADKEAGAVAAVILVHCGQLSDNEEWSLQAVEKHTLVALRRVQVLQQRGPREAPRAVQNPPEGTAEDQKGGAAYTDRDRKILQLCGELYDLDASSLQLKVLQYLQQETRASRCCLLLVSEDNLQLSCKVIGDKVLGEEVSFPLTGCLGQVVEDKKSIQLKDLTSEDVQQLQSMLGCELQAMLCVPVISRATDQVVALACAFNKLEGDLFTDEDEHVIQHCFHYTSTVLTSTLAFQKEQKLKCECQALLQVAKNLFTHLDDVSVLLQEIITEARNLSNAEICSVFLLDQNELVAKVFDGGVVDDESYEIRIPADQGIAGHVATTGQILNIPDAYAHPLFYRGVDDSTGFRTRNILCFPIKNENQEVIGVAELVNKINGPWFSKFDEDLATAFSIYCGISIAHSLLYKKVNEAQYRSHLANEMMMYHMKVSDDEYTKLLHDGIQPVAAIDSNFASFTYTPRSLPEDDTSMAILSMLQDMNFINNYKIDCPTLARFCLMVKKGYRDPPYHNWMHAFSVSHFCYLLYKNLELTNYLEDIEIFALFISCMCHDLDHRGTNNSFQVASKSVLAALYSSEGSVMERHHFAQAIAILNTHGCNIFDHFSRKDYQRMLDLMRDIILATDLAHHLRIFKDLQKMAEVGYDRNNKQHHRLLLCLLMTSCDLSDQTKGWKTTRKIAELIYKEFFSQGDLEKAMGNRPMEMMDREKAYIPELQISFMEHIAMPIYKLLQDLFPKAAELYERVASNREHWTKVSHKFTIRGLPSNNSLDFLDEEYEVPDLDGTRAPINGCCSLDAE
- Assay Comment: Inhibition of human recombinant PDE2 assessed as inhibition of [3H]cAMP hydrolysis by scintillation proximity assay
pKi: −log10 of the molar value.
Measured Endpoint: pKi

Some solved entries appear below for comparison.
INSERT INTO assay_data (compound_smiles, result) VALUES
  ('COc1cc2c(cc1OC)-c1c(-c3cncs3)ncn1CC2', '< 5.70'),
  ('COc1cc2c(cc1OC)-c1c(-c3cccnc3)ncn1CC2', '< 5.37'),
  ('COc1cc2c(cc1OC)-c1c(-c3cnc(C(=O)N(C)C(C)(C)C)s3)ncn1CC2', '< 5.70');

Request: For the compound shown here, `COc1cc2c(cc1OC)-c1c(-c3cccnc3)nc(C)n1CC2` , give the reported pKi.
Response: < 5.10

Request: For the compound shown here, `COc1cc2c(cc1OC)-c1c(-c3cncs3)nc(C)n1CC2` , give the reported pKi.
Response: < 5.15

---

- Target Entity: High affinity 3',5'-cyclic-AMP phosphodiesterase 7A (Homo sapiens)
- Sequence (Q13946 whole entry): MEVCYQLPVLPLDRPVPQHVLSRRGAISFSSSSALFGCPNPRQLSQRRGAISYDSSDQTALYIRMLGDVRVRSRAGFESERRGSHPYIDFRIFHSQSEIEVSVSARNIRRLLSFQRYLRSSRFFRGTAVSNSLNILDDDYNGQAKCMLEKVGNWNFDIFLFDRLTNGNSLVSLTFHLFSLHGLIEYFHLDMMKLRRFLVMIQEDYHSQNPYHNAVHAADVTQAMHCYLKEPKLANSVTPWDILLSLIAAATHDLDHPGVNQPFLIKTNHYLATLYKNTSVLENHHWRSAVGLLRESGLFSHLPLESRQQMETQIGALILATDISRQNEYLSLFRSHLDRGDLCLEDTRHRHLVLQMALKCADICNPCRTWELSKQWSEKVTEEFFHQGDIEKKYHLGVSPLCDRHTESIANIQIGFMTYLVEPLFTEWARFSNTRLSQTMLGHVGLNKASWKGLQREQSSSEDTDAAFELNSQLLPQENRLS
- Assay Comment: Inhibition of human recombinant PDE7A1 assessed as inhibition of [3H]cAMP hydrolysis by scintillation proximity assay
Measured Endpoint: Ki (µM)

INSERT INTO measurements (compound_smiles, measured_endpoint, result) VALUES
  ('COc1cc2c(cc1OC)-c1c(-c3cncs3)nc(C)n1CC2', 'Ki', 6.12),
  ('COc1cc2c(cc1OC)-c1c(-c3cccc(Br)c3)ncn1CC2', 'Ki', 10.1),
  ('COc1cc2c(cc1OC)-c1c(-c3cnc(C(=O)NCc4ccccc4)s3)ncn1CC2', 'Ki', 0.507);

(1) COc1cc2c(cc1OC)-c1c(-c3cnc(C(=O)NC4CCOCC4)s3)ncn1CC2
(2) COc1cc2c(cc1OC)-c1c(-c3cnc(N4CCOCC4)s3)ncn1CC2
Request: Please indicate which item has the smaller measured Ki: 1 versus 2 The response must carry the label of the picked entry.
Response: 1

---

- Target Entity: UniProt:Q14432
- Sequence (Q14432 whole entry): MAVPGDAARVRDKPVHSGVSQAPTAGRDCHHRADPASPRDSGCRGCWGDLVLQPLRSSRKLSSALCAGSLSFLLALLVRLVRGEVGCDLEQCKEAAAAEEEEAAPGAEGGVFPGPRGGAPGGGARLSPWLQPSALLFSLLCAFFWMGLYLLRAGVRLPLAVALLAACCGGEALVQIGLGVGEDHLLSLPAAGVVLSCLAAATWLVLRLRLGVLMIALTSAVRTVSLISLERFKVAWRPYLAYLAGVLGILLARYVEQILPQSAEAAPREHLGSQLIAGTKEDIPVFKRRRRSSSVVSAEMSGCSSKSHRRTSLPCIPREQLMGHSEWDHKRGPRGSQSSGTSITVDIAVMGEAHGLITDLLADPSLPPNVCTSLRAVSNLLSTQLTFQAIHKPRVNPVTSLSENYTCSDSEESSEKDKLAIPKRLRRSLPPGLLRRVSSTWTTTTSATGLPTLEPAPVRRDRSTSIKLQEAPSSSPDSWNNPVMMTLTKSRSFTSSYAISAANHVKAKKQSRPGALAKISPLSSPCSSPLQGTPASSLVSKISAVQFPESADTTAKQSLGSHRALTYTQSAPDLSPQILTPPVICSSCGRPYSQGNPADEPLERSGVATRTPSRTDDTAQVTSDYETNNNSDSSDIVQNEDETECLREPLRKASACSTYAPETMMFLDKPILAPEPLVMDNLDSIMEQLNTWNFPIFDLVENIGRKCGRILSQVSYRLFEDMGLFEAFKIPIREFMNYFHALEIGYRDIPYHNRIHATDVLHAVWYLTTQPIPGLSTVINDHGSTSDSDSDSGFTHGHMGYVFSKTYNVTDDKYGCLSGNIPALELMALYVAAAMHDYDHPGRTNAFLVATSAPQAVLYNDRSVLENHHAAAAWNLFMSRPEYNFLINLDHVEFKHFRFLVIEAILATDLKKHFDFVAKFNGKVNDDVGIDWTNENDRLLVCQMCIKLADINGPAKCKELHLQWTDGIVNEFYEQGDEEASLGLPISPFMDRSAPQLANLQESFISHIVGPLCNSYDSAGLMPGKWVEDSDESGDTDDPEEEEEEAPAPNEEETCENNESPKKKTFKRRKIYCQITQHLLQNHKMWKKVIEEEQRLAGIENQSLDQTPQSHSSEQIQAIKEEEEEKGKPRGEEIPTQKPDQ
- Assay Comment: Inhibition of human recombinant PDE3A assessed as inhibition of [3H]cAMP hydrolysis by scintillation proximity assay
Measured Endpoint: Ki (nM)

Some solved entries appear below for comparison.
INSERT INTO measurements (compound_smiles, measurement_unit, result) VALUES
  ('COc1cccc(-c2ncn3c2-c2cc(OC)c(OC)cc2CC3)c1', 'nM', 136),
  ('COc1cc2c(cc1OC)-c1c(-c3cnc(CO)s3)ncn1CC2', 'nM', 540),
  ('COc1cc2c(cc1OC)-c1c(-c3cccnc3)ncn1CC2', 'nM', 449),
  ('CCOc1cccc(-c2ncn3c2-c2cc(OC)c(OC)cc2CC3)c1', 'nM', 277),
  ('COc1cc2c(cc1OC)-c1c(-c3cnc(C(=O)NC4CCOCC4)s3)ncn1CC2', 'nM', 828);

(a) COc1cc2c(cc1OC)-c1c(-c3cccc(Br)c3)ncn1CC2
(b) COc1cc2c(cc1OC)-c1c(-c3cnc(C(=O)N4CCOCC4)s3)ncn1CC2
(c) COc1cc2c(cc1OC)-c1c(-c3cnc(CN4CCOCC4)s3)ncn1CC2
Request: Order the records so the highest Ki appears first and the lowest last. // format: requested-order list of labels
Response: a, c, b

(A) COc1cc2c(cc1OC)-c1c(-c3cccc(Cl)c3)ncn1CC2
(B) COc1cc2c(cc1OC)-c1c(-c3cnc(CN4CCCOCC4)s3)ncn1CC2
(C) COc1cc2c(cc1OC)-c1c(-c3cnc(C(=O)N4CCCOCC4)s3)ncn1CC2
Request: Sort low-to-high on Ki, please. // format: requested-order list of labels
Response: C, B, A

(1) COc1cc2c(cc1OC)-c1c(-c3cnc(C(=O)N(C)C(C)(C)C)s3)ncn1CC2
(2) COc1cc2c(cc1OC)-c1c(-c3cccnc3)nc(C)n1CC2
Request: Which of the two items, 1 and 2 , has the greater recorded Ki? The response must carry the label of the picked entry.
Response: 2
(2: 727 nM, 1: 149 nM)

(1) COc1cc2c(cc1OC)-c1c(-c3cnco3)ncn1CC2
(2) COc1cc2c(cc1OC)-c1c(-c3cncs3)nc(C)n1CC2
Request: Please indicate which item has the smaller measured Ki: 1 versus 2 The response must carry the label of the picked entry.
Response: 2

---

- Assay Comment: Dissociation constant, pKa of the compound
- Assay type: physicochemical
Measured Endpoint: pKa

Some solved entries appear below for comparison.
INSERT INTO results (compound_smiles, result) VALUES
  ('COc1cc2c(cc1OC)-c1c(-c3cncs3)ncn1CC2', 4.3),
  ('COc1cc2c(cc1OC)-c1c(-c3cnc(C(=O)N(C)C(C)(C)C)s3)ncn1CC2', 4),
  ('COc1cc2c(cc1OC)-c1c(-c3cccnc3)nc(C)n1CC2', 4);

(1) COc1cc2c(cc1OC)-c1c(-c3cccnc3)ncn1CC2
(2) COc1cc2c(cc1OC)-c1c(-c3cncs3)nc(C)n1CC2
Request: Which of the two items, 1 and 2 , has the greater recorded pKa? The response must carry the label of the picked entry.
Response: 2
(2: 5, 1: 3.5)

---

// reported Ki for each item listed
- Target Entity: cGMP-specific 3',5'-cyclic phosphodiesterase (Homo sapiens, UniProt O76074)
- Assay Comment: Inhibition of human recombinant PDE5 assessed as inhibition of [3H]cAMP hydrolysis by scintillation proximity assay

Some solved entries appear below for comparison.
INSERT INTO measurements (compound_smiles, target_entity, result) VALUES
  ('COc1cc2c(cc1OC)-c1c(-c3cnc(C(=O)N(C)C(C)(C)C)s3)ncn1CC2', 'cGMP-specific 3'',5''-cyclic phosphodiesterase (Homo sapiens, UniProt O76074)', '> 2 µM'),
  ('COc1cc2c(cc1OC)-c1c(-c3cncs3)nc(C)n1CC2', 'cGMP-specific 3'',5''-cyclic phosphodiesterase (Homo sapiens, UniProt O76074)', '> 7.1 µM'),
  ('COc1cc2c(cc1OC)-c1c(-c3cccnc3)ncn1CC2', 'cGMP-specific 3'',5''-cyclic phosphodiesterase (Homo sapiens, UniProt O76074)', '> 4.27 µM'),
  ('COc1cc2c(cc1OC)-c1c(-c3cccnc3)nc(C)n1CC2', 'cGMP-specific 3'',5''-cyclic phosphodiesterase (Homo sapiens, UniProt O76074)', '> 7.95 µM');

--- query ---
Request: For the compound shown here, `COc1cc2c(cc1OC)-c1c(-c3cncs3)ncn1CC2` , give the reported Ki.
Response: > 2 µM
